# TARGET OR TEST SYSTEM: Renin (Homo sapiens)
# Sequence (P00797 whole entry): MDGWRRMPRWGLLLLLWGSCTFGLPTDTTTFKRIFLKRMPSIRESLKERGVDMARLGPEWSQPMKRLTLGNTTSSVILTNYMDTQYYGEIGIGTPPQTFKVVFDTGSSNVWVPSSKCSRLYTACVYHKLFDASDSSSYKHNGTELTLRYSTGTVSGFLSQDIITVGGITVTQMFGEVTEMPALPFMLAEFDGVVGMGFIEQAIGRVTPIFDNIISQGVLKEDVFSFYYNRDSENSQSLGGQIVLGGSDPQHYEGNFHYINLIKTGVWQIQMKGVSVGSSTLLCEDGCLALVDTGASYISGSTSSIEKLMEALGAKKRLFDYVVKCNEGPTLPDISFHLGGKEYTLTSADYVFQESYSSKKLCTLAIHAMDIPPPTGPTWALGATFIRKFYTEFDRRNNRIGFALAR
# ASSAY INFO: Inhibition of renin
Overview of recorded Ki for various compounds

{"SMILES STR": "COC(=O)N[C@H](C(=O)N[C@H](Cc1ccc(-c2ccccn2)cc1)C[C@H](O)[C@H](Cc1ccccc1)NC(=O)[C@@H](N1CCN(Cc2cccc(C(C)(C)O)n2)C1=O)C(C)(C)C)C(C)(C)C", "MEASURE": "Ki", "RESULT": "> 20 µM"}

Next:
Ki reported for this compound `COC(=O)N[C@H](C(=O)N[C@@H](Cc1ccc(-c2ccccn2)cc1)C[C@H](O)[C@H](Cc1ccccc1)NC(=O)[C@@H](N1CCN(Cc2ccccc2)C1=O)C(C)(C)C)C(C)(C)C` : > 4 µM
